FYI, the data here is from patent US20260167721A1.

// reported Response for each item listed
- ASSAYED SYSTEM: T1, recombinant human CD3 epsilon/delta heterodimer (human, UniProt P07766 23-126; P04234 22-105)
- T1 construct: Recombinant protein in solution (200-50 nM) in the Octet assay; also called hCD3 E/D; human CD3E/D
- T1 sequence (P07766 23-126, stated change not applied, chain 1 of 2): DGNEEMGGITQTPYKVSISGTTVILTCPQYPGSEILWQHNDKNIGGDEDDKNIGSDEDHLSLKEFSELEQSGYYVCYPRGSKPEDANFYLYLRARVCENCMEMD
- T1 sequence (P04234 22-105, stated change not applied, chain 2 of 2): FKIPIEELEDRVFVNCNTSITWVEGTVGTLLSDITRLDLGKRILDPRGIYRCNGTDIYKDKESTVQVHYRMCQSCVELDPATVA
- ASSAY REMARKS: Octet BLI, mAb on FAB2G sensor, hCD3 E/D 200-50 nM; R^2 0.99

{"BINDER": "ABL-CD3-53 (antibody, V domains shown, Chimeric hybridoma mAb: human V, CH1, upper hinge; mouse middle hinge, CH2, CH3) VH: EVQLVESGGGLVKPGGSLRLSCAASGFTFSSYTMNWVRQAPGKGLEWVSSITTSSSYIYYADSVKGRFTISRDNAKNSLYLQMNSLRAEDTAVYYCARVTFDAFDIWGQGTMVTVSS VL: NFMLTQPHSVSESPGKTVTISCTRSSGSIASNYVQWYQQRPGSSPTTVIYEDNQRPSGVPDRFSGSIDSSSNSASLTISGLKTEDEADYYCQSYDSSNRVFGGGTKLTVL", "Response": 0.24}
{"BINDER": "ABL-CD3-46 (antibody, V domains shown, Chimeric hybridoma mAb: human V, CH1, upper hinge; mouse middle hinge, CH2, CH3) VH: EVQLVESGGGLVKPGGSLRLSCSASGFTFSTYTMNWVRQAPGKGLDWVSSISKSSTYIYYADSVKGRFTISRDNAKNSLYLQMNSLRAEDTAVYYCARERRTLAFDIWGQGTMVTVSS VL: NFMLTQPHSVSESPGKTVTISCTRSSGSIASNYVQWYQQRPGSSPTTVIYEDNQRPSGVPDRFSGSIDSSSNSASLTISGLKTEDEADYYCQCYDRSNRVFGGGTKLTVL", "Response": 1.02}
{"BINDER": "ABL-CD3-47 (antibody, V domains shown, Chimeric hybridoma mAb: human V, CH1, upper hinge; mouse middle hinge, CH2, CH3) VH: EVQLVESGGGLVQPGGSLRLSCAASGFTFSRYSMNWVRQAPGKGLEWVSYISRSSTTIYYADSVKGRFTISRDNAKNSLYLQMNSLRDEDAAVYYCARERWELLYFDYWGQGTLVTVSS VL: NFMLTQPHSVSESPGKTVTISCTRSSGSIASKYVQWYQQRPGSSPTTVIYEDNQRPSGVPDRFSGSIDSSSNSASLTISGLKTEDEADYYCQSYYSNNRVFGGGTKLTVL", "Response": 0.62}
